experiment: chemical genetic growth profiling, strain panel (AID 1159580);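 note: tested at 20 µM; growth read once vehicle control cultures reached saturation at 30 °C; 1 = growth at the plate median or of vehicle wells; lower values mean less growth of the strain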; conditions: S. cerevisiae deletion strains, growth OD, locus YGR229C, strain SMI1, hits give low values
Among all 5,500 compounds or so, about 2,000 (36%) were called active. About 18% were inconclusive and are not listed. The list shows a part of the results.
Experimental Readout: normalized growth
One number for each entry.

Molecule | Observed Measurement
c1ccc2c(c1)[nH]c1cnccc12 | 1.02
CCCCCN=C(N)N/N=C\c1c[nH]c2ccc(OC)cc12 | 0.997
Cc1cc(C)c(C(=O)NCCNc2ccc(C(F)(F)F)cc2[N+](=O)[O-])c(C)c1 | 1

I need normalized growth for every entry listed below, if you could help.
1. CC(=O)c1csc([N+](=O)[O-])c1
2. N#CC(C#N)=CNc1cc(C(F)(F)F)ccc1N1CCCCC1
3. COc1ccc(-c2c(C(=O)O)sc(SC)c2C#N)cc1
4. Cc1cc(C)nc(NS(=O)(=O)c2ccc(N)cc2)n1
5. S=c1nc(-c2ccccc2)[nH][nH]1

a:
1.01
1
1
0.989
0.994

I need normalized growth for every entry listed below, if you could help.
1. CCOC(=O)CC1=Nn2c(nnc2-c2cc(Cl)cc(Cl)c2)SC1
2. CC(=O)SC1CC2=CC(=O)CC[C@]2(C)C2CC[C@@]3(C)C(CC[C@@]34CCC(=O)O4)C12 (stereo partly specified)
3. NC(=S)c1ccc2nonc2c1

a:
[0.979, 1.01, 0.994]

---

assay: chemical genetic growth profiling, strain panel (AID 1159580); conditions: S. cerevisiae deletion strains, growth OD, locus YLR268W, strain sec22, hits give low values
The whole screen tested about 5,500 compounds, of which about 2,000 (36%) were called active. Not shown: some 18% with an inconclusive outcome. This is one part of the list.
Experimental Readout: normalized growth
One number for each entry.

The following compounds have reported results that may help.
Compound | normalized growth
C[C@]12CCC3C(CC[C@H]4C[C@@H](Cl)CC[C@]34C)C1CCC2=O (stereo not given in full) | 0.982
CCOC(=O)C1=C(C)NC(C)=C(C(=O)OC)C1c1cccc([N+](=O)[O-])c1 (stereo not given) | 0.984
CC1=C2[C@](C)(C=CC1=O)C[C@H](O)[C@H]1[C@H](C)C(=O)O[C@]21C | 1.02
COc1cc(O)c(C)c(O)c1 | 1.02
O=c1cc(-c2ccc(O)cc2)oc2cc(O[C@@H]3O[C@H](CO)[C@@H](O)[C@H](O)[C@H]3O[C@@H]3OC[C@](O)(CO)[C@H]3O)cc(O)c12 | 0.983

I need normalized growth for every entry listed below, if you could help.
1. COC(=O)C[C@H]1C(C)(C)[C@@H](OC(C)=O)[C@@H]2CC3C4CC(=O)O[C@@H](c5ccoc5)[C@]4(C)CCC3[C@@]1(C)C2=O (stereo not given in full)
2. O=c1[nH]cnc2nc[nH]c12

a:
1: 0.985; 2: 0.971

---

assay: chemical genetic growth profiling, strain panel (AID 1159580); conditions: S. cerevisiae deletion strains, growth OD, locus YAL030W, strain snc1, hits give low values
Among all 5,500 compounds or so, about 2,000 (36%) were called active. About 18% were inconclusive and are not listed. Some of the results follow.
Can you tell me normalized growth for the items I'm about to list?
One number for each entry.

Compound | normalized growth
FC(F)(F)COCC(F)(F)F | 0.993
O=C1c2ccc(O)c(O)c2C(=O)c2c(O)ccc(O)c21 | 0.69
COc1cc2ccc(=O)oc2cc1O | 0.977
O=c1ccc2ccc(O)c(O)c2o1 | 1.01

q: Tell me normalized growth reported for C[C@]12C=CC(=O)C=C1CCC1C2CC[C@]2(C)C(=O)CCC12 (stereo not given in full)
a: 0.976

---

assay: chemical genetic growth profiling, strain panel (AID 1159580); details: S. cerevisiae deletion strains, growth OD, locus YOR070C, strain gyp1, hits give low values
About 2,000 (36%) of roughly 5,500 compounds were called active. Roughly 18% stayed inconclusive and do not appear here. Some of the results follow.
Experimental Readout: normalized growth
Answers are plain numbers.

The following compounds have reported results that may help.
Compound | normalized growth
CN1CCN(CCCN2c3ccccc3Sc3ccc(Cl)cc32)CC1 | 0.347
CSCCC(NC=O)C(=O)NC(CC(C)C)C(=O)NC(Cc1ccccc1)C(=O)O (centres undefined) | 1.02
Cc1cc(O)c2c(c1O)C(=O)c1c(O)cc(C)c(O)c1C2=O | 0.972
Cc1nccc2c1[nH]c1ccccc12 | 0.98
O=C1c2ccccc2C(=O)c2c(O)c(O)cc(O)c21 | 0.439

I need normalized growth for every entry listed below, if you could help.
1. O=c1ccc2ccc(O)c(O)c2o1
2. CC(=O)N[C@@H](CC(=O)O)C(=O)O
3. c1ccc2c(c1)[nH]c1cnccc12

a:
0.991
1
1.01

q: Tell me normalized growth reported for Nc1ncnc2nc[nH]c12
a: 0.981

---

experiment: chemical genetic growth profiling, strain panel (AID 1159580);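 note: tested at 20 µM; growth read once vehicle control cultures reached saturation at 30 °C; 1 = growth at the plate median or of vehicle wells; lower values mean less growth of the strain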; conditions: S. cerevisiae deletion strains, growth OD, locus YJR075W, strain HOC1, hits give low values
In all, about 5,500 compounds went through this assay and about 2,000 (36%) were called active. Inconclusive results (about 18%) are left out. Some of the results follow.
Experimental Readout: normalized growth
One number for each entry.

The following compounds have reported results that may help.
Smiles Record | Observed Measurement
N#Cc1ccc2c(c1)N(CCCN1CCC(O)CC1)c1ccccc1S2 | 1.03
NOCC(=O)O | 1
COc1ccc2c(c1)[nH]c1c(C)nccc12 | 1.02

Could you now consider this next compound?
q: Tell me normalized growth reported for Cc1ccc(C(=O)NNC(=O)c2ccncc2)c(C)c1
a: 1.03

---

experiment: chemical genetic growth profiling, strain panel (AID 1159580);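 note: tested at 20 µM; growth read once vehicle control cultures reached saturation at 30 °C; 1 = growth at the plate median or of vehicle wells; lower values mean less growth of the strain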; details: S. cerevisiae deletion strains, growth OD, locus YOR080W, strain dia2, hits give low values
Hit rate of the full screen: of about 5,500 compounds, about 2,000 (36%) were called active. About 18% were inconclusive and are not listed. This is one part of the list.
Can you tell me normalized growth for the items I'm about to list?
Give bare numbers.

The following molecules have reported results that may help.
Molecule | normalized growth
C[C@]12CCC3C(CC[C@H]4C[C@@H](O)CC[C@]34C)C1CCC2=O (some centres undefined) | 1.02
OC[C@@H](O)C(O[C@@H]1O[C@H](CO)[C@H](O)[C@H](O)[C@H]1O)[C@H](O)[C@@H](O)CO (some centres undefined) | 0.981
c1coc(CNc2ncnc3nc[nH]c23)c1 | 0.995

I need normalized growth for every entry listed below, if you could help.
1. O=C1OC(=O)C2C3CCC(O3)C12 (centres undefined)
2. COc1cc(O)c(C)c(O)c1
3. O=c1cc(-c2ccc(O)cc2)oc2cc(O[C@@H]3O[C@H](CO)[C@@H](O)[C@H](O)[C@H]3O[C@@H]3OC[C@](O)(CO)[C@H]3O)cc(O)c12
4. O=C(O)c1cccc(O)c1O

a:
1: 1.01; 2: 1.02; 3: 1; 4: 1.02

I need normalized growth for every entry listed below, if you could help.
1. CN(C)c1nc(N(C)C)nc(N(C)C)n1
2. CCOc1ccc(Cc2nccc3cc(OCC)c(OCC)cc23)cc1OCC

a:
[0.974, 0.977]

---

assay: chemical genetic growth profiling, strain panel (AID 1159580);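 note: tested at 20 µM; growth read once vehicle control cultures reached saturation at 30 °C; 1 = growth at the plate median or of vehicle wells; lower values mean less growth of the strain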; settings: S. cerevisiae deletion strains, growth OD, locus YLR370C, strain arc18, hits give low values
In all, about 5,500 compounds went through this assay and about 2,000 (36%) were called active. Another 18% or so got no clear call; they are omitted. The list shows a part of the results.
Can you tell me normalized growth for the items I'm about to list?
One number for each entry.

The following compounds have reported results that may help.
Compound | Observed Measurement
CC(=O)OC1CCC2C3CCc4cc(O)ccc4C3CCC12C (stereo not given) | 0.98
Cc1nccc2c1[nH]c1ccccc12 | 0.968
CC(=O)Oc1ccc2c(c1)CCC1C2CCC2(C)C1CC(OC(C)=O)C2OC(C)=O (stereo not given) | 0.989
CCCC(=O)Nc1ncnc2c1ncn2C1O[C@@H]2COP(=O)(O)O[C@H]2[C@H]1OC(=O)CCC (stereo not given in full) | 0.952

I need normalized growth for every entry listed below, if you could help.
1. Nc1ncnc2nc[nH]c12
2. CN1Cc2c(N)cccc2C(c2ccccc2)C1 (stereo not given)
3. O=C(O)c1cccc(O)c1O
4. COc1ccc2c(c1)[nH]c1c(C)nccc12
5. CC(=O)OC1CCC23C(=O)OC45CCC(C6=CC(=O)OC6)C4(C)CCC2C5CCC3(O)C1 (stereo not given)
6. CCCCC(=O)O[C@H]1CCC2C3CCc4cc(O)ccc4C3CC[C@@]21C (stereo not given in full)
7. COP(=S)(OC)SCn1nnc2ccccc2c1=O

a:
[0.983, 1, 1.01, 1, 0.986, 1.03, 1.02]

I need normalized growth for every entry listed below, if you could help.
1. C[N+]1(C)CCc2cc3c(cc2[C@H]1C1OC(=O)c2c1ccc1c2OCO1)OCO3 (stereo not given in full)
2. C[N+]1(C)C2CC[C@H]1CC(OC(=O)C(O)c1ccccc1)C2 (stereo not given in full)
3. COc1cc(OC)c2c(c1Cl)OC1(C2=O)C(O)=CC(=O)CC1C (stereo not given)
4. C[C@]12CCC3c4ccc(O)cc4CCC3C1CC[C@@H]2OC(=O)CCC1CCCC1 (stereo not given in full)

a:
1: 1.01; 2: 0.993; 3: 1.01; 4: 1.02
